Recorded Kd values for a group of compounds are listed next.
# Assayed system: 5-hydroxytryptamine receptor 1A (Homo sapiens, UniProt P08908)
# Sequence (P08908 whole entry): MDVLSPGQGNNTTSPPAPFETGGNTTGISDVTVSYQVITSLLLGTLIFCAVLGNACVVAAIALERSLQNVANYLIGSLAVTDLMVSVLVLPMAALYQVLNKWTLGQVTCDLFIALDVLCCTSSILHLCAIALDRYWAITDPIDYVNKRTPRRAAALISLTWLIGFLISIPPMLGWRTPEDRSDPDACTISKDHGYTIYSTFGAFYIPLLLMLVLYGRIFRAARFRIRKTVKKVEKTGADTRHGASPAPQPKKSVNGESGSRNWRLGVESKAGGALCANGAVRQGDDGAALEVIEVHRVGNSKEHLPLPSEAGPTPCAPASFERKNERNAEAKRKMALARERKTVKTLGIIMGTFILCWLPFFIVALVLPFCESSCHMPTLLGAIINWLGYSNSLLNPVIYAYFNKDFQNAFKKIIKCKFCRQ
# Assay: Binding affinity to 5HT1A receptor
# Condition parameters: read-out: pKd (converted)
Assay endpoint: Kd (nM)

> print(dat)
                                    compound                            assayed.system  numeric.result
 1    COc1cccc2c1C[C@H]1CCN(CC3CC3)[C@@H]1C2  5-hydroxytryptamine receptor 1A (Homo sapiens, UniProt P08908)            31.6
 2         C=CCN1C[C@H]2c3c(O)cccc3CC[C@H]21  5-hydroxytryptamine receptor 1A (Homo sapiens, UniProt P08908)           0.316
 3  FC(F)(F)c1cccc(C2CNCCO2)c1 (centres undefined)  5-hydroxytryptamine receptor 1A (Homo sapiens, UniProt P08908)             251
 4  Fc1ccc([C@@H]2CCNC[C@H]2COc2ccc3c(c2)OCO3)cc1  5-hydroxytryptamine receptor 1A (Homo sapiens, UniProt P08908)           31600
 5  COc1ccccc1N1CCN(C[C@@H](C(=O)NC(C)(C)C)c2ccccc2)CC1  5-hydroxytryptamine receptor 1A (Homo sapiens, UniProt P08908)            1.26
 6  CCc1nn(CCCN2CCN(c3cccc(Cl)c3)CC2)c(=O)n1CCOc1ccccc1  5-hydroxytryptamine receptor 1A (Homo sapiens, UniProt P08908)             158
 7              C[C@H]1[C@H](c2ccccc2)OCCN1C  5-hydroxytryptamine receptor 1A (Homo sapiens, UniProt P08908)           12600
 8                CN(C)CCc1c[nH]c2ccc(O)cc12  5-hydroxytryptamine receptor 1A (Homo sapiens, UniProt P08908)            3.16
 9  O=C1c2ccccc2S(=O)(=O)N1CCCCN1CCN(c2ncccn2)CC1  5-hydroxytryptamine receptor 1A (Homo sapiens, UniProt P08908)            3.98
10      CCCN1CC[C@@H]2c3c(cccc3OC)CC[C@@H]21  5-hydroxytryptamine receptor 1A (Homo sapiens, UniProt P08908)             200
11                      Clc1cncc(N2CCNCC2)n1  5-hydroxytryptamine receptor 1A (Homo sapiens, UniProt P08908)             794
12           C=CCN1CC[C@H]2c3ccccc3CC[C@H]21  5-hydroxytryptamine receptor 1A (Homo sapiens, UniProt P08908)               1
13   COc1cccc2c1C[C@@H]1CCN(CC3CC3)[C@@H]1C2  5-hydroxytryptamine receptor 1A (Homo sapiens, UniProt P08908)             794
14         CCCN(CCC)[C@H]1CCc2c(F)ccc(O)c2C1  5-hydroxytryptamine receptor 1A (Homo sapiens, UniProt P08908)            25.1
15  CN1C[C@@H](NS(=O)(=O)N(C)C)C[C@@H]2c3cccc4c3c(cn4C)C[C@H]21  5-hydroxytryptamine receptor 1A (Homo sapiens, UniProt P08908)             158
16  O=C(NCCN1CCOCC1)c1ccc(Cl)cc1 [MOCLOBEMIDE]  5-hydroxytryptamine receptor 1A (Homo sapiens, UniProt P08908)            5010
17        CCCN1CC[C@H]2c3c(cccc3OC)CC[C@H]21  5-hydroxytryptamine receptor 1A (Homo sapiens, UniProt P08908)             0.2
18                      Clc1cccc(N2CCNCC2)c1  5-hydroxytryptamine receptor 1A (Homo sapiens, UniProt P08908)             100
19  Cc1nc2ccccn2c(=O)c1CCN1CCC(C(=O)c2ccc(F)cc2)CC1  5-hydroxytryptamine receptor 1A (Homo sapiens, UniProt P08908)            2510

Entry source: ChEMBL document CHEMBL1155229
